Target: TYK2 (Homo sapiens, UniProt P29597)
Construct: JAK1 (aa 850-1154) and TYK2 (aa 871-1187) are expressed with an N-terminally fused GST-tag; GST (N)
Sequence (P29597 871-1187): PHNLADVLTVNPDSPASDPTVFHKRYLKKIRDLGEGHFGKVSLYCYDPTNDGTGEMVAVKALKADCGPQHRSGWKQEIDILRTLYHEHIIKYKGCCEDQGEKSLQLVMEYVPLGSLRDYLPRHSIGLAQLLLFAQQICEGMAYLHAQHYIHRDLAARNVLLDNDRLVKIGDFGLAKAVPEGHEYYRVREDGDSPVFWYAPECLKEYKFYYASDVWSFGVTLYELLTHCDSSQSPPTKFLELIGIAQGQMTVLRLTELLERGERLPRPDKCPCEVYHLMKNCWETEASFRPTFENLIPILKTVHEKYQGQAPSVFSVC
Experiment: JAK kinase assay (HTRF, phosphorylation of synthetic peptide), TYK2
Conditions: catalytic domain, ATP at Km (13 μM); read-out: TYK2 kinase inhibitory activity (EC50)
pEC50: −log10 of the molar value.
pEC50: recorded values

Known results for compounds:
May I ask what pEC50 has been recorded for O=CNS(=O)(=O)N1CCN(c2ncnc3[nH]ccc23)CC12CC2 [Example 176] ? < 6.30

Please answer likewise for O=S1(=O)CCC(CNS(=O)(=O)N2CCN(c3ncnc4[nH]ccc34)CC23CC3)CC1 [Int 38] < 6.30

Next:
May I ask what pEC50 has been recorded for CC(O)CC(=O)N1CCC(CN(C)S(=O)(=O)N2CCN(c3ncnc4[nH]ccc34)CC23CC3)C1 (centres unmarked) [Example 124] ? < 6.30

Please answer likewise for CC(C)(C)OC(=O)NS(=O)(=O)N1CCN(c2ncnc3[nH]ccc23)CC12CC2 [Int 53] < 6.30

Please answer likewise for CN(Cc1ccno1)S(=O)(=O)N1CCN(c2ncnc3[nH]ccc23)CC12CC2 [Example 68] 6.30 to 7.00

Please answer likewise for N#CCN(C1CCC1)S(=O)(=O)N1CCN(c2ncnc3[nH]ccc23)CC12CC2 [Example 100] > 7.00

Please answer likewise for C=C1CCC(CN(C)S(=O)(=O)N2CCN(c3ncnc4[nH]ccc34)CC23CC3)CC1 [Example 87] 6.30 to 7.00

Please answer likewise for COc1ccc(CCN(C)S(=O)(=O)N2CCN(c3ncnc4[nH]ccc34)CC23CC3)cc1OC [Example 51] 6.30 to 7.00

Please answer likewise for N#CCCCN(C1COC1)S(=O)(=O)N1CCN(c2ncnc3[nH]ccc23)CC12CC2 [Example 114] > 7.00

Please answer likewise for CN(C[C@H]1CCCN1C(=O)C(O)CO)S(=O)(=O)N1CCN(c2ncnc3[nH]ccc23)CC12CC2 (some centres unmarked) [Example 186] > 7.00

Please answer likewise for O=S(=O)(NC[C@@H]1CCCN1Cc1ccccc1)N1CCN(c2ncnc3[nH]ccc23)CC12CC2 [Example 175] 6.30 to 7.00

meta.source: patent US9233964B2
